Data provenance is ChEMBL document CHEMBL4354856.

Entries and their IC50 values follow.
# Test system: L02
# protocol notes: Cytotoxicity against human HL7702 cells assessed as inhibition of cell proliferation measured after 48 hrs by MTT assay
# Type: cell-based
# settings: L02, 48 h
The reply should contain only the number, in µM.

The following compounds have reported results that may help.
>  <compound>
COc1cc([C@@H]2c3cc4c(cc3[C@@H](O[C@@H]3O[C@@H]5CO[C@@H](c6cccs6)O[C@H]5[C@H](O)[C@H]3OC(=O)CSc3nc5cc(F)ccc5o3)[C@H]3COC(=O)[C@H]23)OCO4)cc(OC)c1O

>  <IC50 (µM)>
17.3

$$$$
>  <compound>
COc1cc([C@@H]2c3cc4c(cc3[C@@H](O[C@@H]3O[C@@H]5CO[C@@H](c6cccs6)O[C@H]5[C@H](OC(=O)CSc5nc6cc(F)ccc6o5)[C@H]3O)[C@H]3COC(=O)[C@H]23)OCO4)cc(OC)c1O

>  <IC50 (µM)>
16.1

$$$$

Entry COc1cc([C@@H]2c3cc4c(cc3[C@@H](O[C@@H]3O[C@@H]5CO[C@@H](c6cccs6)O[C@H]5[C@H](OC(=O)CSc5nc6cc(F)ccc6s5)[C@H]3O)[C@H]3COC(=O)[C@H]23)OCO4)cc(OC)c1O has what IC50?
16.4

Entry COc1cc([C@@H]2c3cc4c(cc3[C@@H](O[C@@H]3O[C@@H]5CO[C@@H](c6cccs6)O[C@H]5[C@H](O)[C@H]3O)[C@H]3COC(=O)[C@H]23)OCO4)cc(OC)c1O [TENIPOSIDE] has what IC50?
11.5

====

Entries and their pIC50 values follow.
# System: MRC5
# protocol notes: Cytotoxicity against human MRC5 cells assessed as inhibition of cell proliferation measured after 48 hrs by MTT assay
# Type: cell-based
# settings: MRC5, 48 h
Worth noting: pIC50 values are minus log10 of concentrations stated in mol/L.

>  <molecule>
COc1cc([C@@H]2c3cc4c(cc3[C@@H](O[C@@H]3O[C@@H]5CO[C@@H](c6cccs6)O[C@H]5[C@H](O)[C@H]3O)[C@H]3COC(=O)[C@H]23)OCO4)cc(OC)c1O [TENIPOSIDE]

>  <property measured>
pIC50

>  <result value>
4.91

$$$$
>  <molecule>
COc1cc([C@@H]2c3cc4c(cc3[C@@H](O[C@@H]3O[C@@H]5CO[C@@H](c6cccs6)O[C@H]5[C@H](OC(=O)CSc5nc6cc(F)ccc6o5)[C@H]3O)[C@H]3COC(=O)[C@H]23)OCO4)cc(OC)c1O

>  <property measured>
pIC50

>  <result value>
4.83

$$$$
>  <molecule>
COc1cc([C@@H]2c3cc4c(cc3[C@@H](O[C@@H]3O[C@@H]5CO[C@@H](c6cccs6)O[C@H]5[C@H](O)[C@H]3OC(=O)CSc3nc5cc(F)ccc5s3)[C@H]3COC(=O)[C@H]23)OCO4)cc(OC)c1O

>  <property measured>
pIC50

>  <result value>
4.91

$$$$
>  <molecule>
COc1cc([C@@H]2c3cc4c(cc3[C@@H](O[C@@H]3O[C@@H]5CO[C@@H](c6cccs6)O[C@H]5[C@H](OC(=O)CSc5nc6cc(F)ccc6o5)[C@H]3OC(=O)CSc3nc5cc(F)ccc5o3)[C@H]3COC(=O)[C@H]23)OCO4)cc(OC)c1O

>  <property measured>
pIC50

>  <result value>
4.60

$$$$
>  <molecule>
COc1cc([C@@H]2c3cc4c(cc3[C@@H](O[C@@H]3O[C@@H]5CO[C@@H](c6cccs6)O[C@H]5[C@H](O)[C@H]3NC(=O)CSc3nc5cc(F)ccc5o3)[C@H]3COC(=O)[C@H]23)OCO4)cc(OC)c1O

>  <property measured>
pIC50

>  <result value>
3.88

$$$$

Entry COc1cc([C@@H]2c3cc4c(cc3[C@@H](O[C@@H]3O[C@@H]5CO[C@@H](c6cccs6)O[C@H]5[C@H](O)[C@H]3OC(=O)CSc3nc5cc(F)ccc5o3)[C@H]3COC(=O)[C@H]23)OCO4)cc(OC)c1O has what pIC50?
4.80

Entry COc1cc([C@@H]2c3cc4c(cc3[C@@H](O[C@@H]3O[C@@H]5CO[C@@H](c6cccs6)O[C@H]5[C@H](O)[C@H]3NC(=O)CSc3nc5cc(F)ccc5s3)[C@H]3COC(=O)[C@H]23)OCO4)cc(OC)c1O has what pIC50?
3.91

Entry COc1cc([C@@H]2c3cc4c(cc3[C@@H](O[C@@H]3O[C@@H]5CO[C@@H](c6cccs6)O[C@H]5[C@H](OC(=O)CSc5nc6cc(F)ccc6s5)[C@H]3O)[C@H]3COC(=O)[C@H]23)OCO4)cc(OC)c1O has what pIC50?
4.84

Entry COc1cc([C@@H]2c3cc4c(cc3[C@@H](O[C@@H]3O[C@@H]5CO[C@@H](c6cccs6)O[C@H]5[C@H](OC(=O)CSc5nc6cc(F)ccc6s5)[C@H]3OC(=O)CSc3nc5cc(F)ccc5s3)[C@H]3COC(=O)[C@H]23)OCO4)cc(OC)c1O has what pIC50?
4.59
